biological target: PH20 hyaluronidase (bovine testicular hyaluronidase, BTH/PH20) (Bos taurus)
Sequence (Q2YDK3 36-553): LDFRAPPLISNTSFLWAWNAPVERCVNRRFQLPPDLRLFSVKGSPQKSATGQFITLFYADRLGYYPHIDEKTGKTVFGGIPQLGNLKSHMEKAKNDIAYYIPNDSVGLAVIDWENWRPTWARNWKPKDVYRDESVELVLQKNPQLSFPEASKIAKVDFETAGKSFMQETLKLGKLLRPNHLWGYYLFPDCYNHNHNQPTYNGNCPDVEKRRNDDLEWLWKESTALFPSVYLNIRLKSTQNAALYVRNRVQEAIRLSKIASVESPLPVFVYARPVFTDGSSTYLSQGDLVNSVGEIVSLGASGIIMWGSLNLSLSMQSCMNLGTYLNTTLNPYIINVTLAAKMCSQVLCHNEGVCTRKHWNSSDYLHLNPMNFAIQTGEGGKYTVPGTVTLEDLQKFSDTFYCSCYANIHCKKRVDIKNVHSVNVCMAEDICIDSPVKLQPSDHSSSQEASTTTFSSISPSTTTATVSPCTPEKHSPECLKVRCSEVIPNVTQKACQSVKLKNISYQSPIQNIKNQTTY
pIC50: −log10 of the molar value.
endpoint: pIC50

smilesCode: CCCCCCCCCCCCCCCC(=O)OC[C@H](O)[C@H]1OC(=O)C(O)=C1O
measurement: ~4.48
